target: hsst1 (Homo sapiens, UniProt P30872); construct: expressed in transfected cells; experiment: Somatostatin receptor radioligand binding assay, hsst1; conditions: CHO-K1 membranes, [125I-Tyr11]SS-14; read-out: hsst1 Ki
Sequence (P30872 whole entry): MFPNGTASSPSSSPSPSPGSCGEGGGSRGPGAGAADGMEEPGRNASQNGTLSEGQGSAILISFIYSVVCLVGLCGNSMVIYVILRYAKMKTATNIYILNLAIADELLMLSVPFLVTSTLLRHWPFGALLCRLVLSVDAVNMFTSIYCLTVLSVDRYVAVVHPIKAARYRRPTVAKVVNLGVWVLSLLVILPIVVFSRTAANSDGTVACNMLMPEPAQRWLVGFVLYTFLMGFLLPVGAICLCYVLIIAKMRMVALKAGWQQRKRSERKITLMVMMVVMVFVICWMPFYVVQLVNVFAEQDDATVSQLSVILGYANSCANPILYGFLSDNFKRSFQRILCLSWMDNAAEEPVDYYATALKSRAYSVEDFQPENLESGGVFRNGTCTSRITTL
Catalogue of pKi values
Hey, just a heads up that pKi is the negative log base 10 of the concentration in molar.

>  <SMILES REPR>
CCCN1C[C@H](CSCC(=O)N[C@H](Cc2ccccc2)C(=O)N[C@H]2CSSC[C@@H](C(=O)N[C@H](C(N)=O)[C@@H](C)O)NC(=O)[C@H]([C@@H](C)O)NC(=O)[C@H](CCCCN)NC(=O)[C@@H](Cc3c[nH]c4ccccc34)NC(=O)[C@H](Cc3ccc(O)c(I)c3)NC2=O)C[C@@H]2c3cccc4[nH]cc(c34)C[C@H]21

>  <pKi>
6.22

$$$$

Next:
Look up pKi of CCCN1C[C@H](CSCC(=O)NCCCC[C@@H](NC(=O)CSC[C@@H]2C[C@@H]3c4cccc5[nH]cc(c45)C[C@H]3N(CCC)C2)C(=O)N[C@H](Cc2ccccc2)C(=O)N[C@H]2CSSC[C@@H](C(=O)N[C@H](C(N)=O)[C@@H](C)O)NC(=O)[C@H]([C@@H](C)O)NC(=O)[C@H](CCCCN)NC(=O)[C@@H](Cc3c[nH]c4ccccc34)NC(=O)[C@H](Cc3ccc(O)c(I)c3)NC2=O)C[C@@H]2c3cccc4[nH]cc(c34)C[C@H]21 and report it.
6.04

Where do these numbers come from? They come from patent US20110065632A1.
